pIC50: −log10 of the molar value.
pIC50 values recorded for Tyro3 tyrosine kinase (Homo sapiens (Human))

- compound: "CCC[C@H](C)Nc1ncc2c(C3CCN(CC4CCN(C)CC4)CC3)cn([C@H]3CC[C@H](O)CC3)c2n1"
  pIC50: "7.00 to 8.00"
- compound: "CC[C@H]1C[C@@H]1Nc1ncc2c(C3CCN(C(=O)c4ccncc4)CC3)cn([C@H]3CC[C@H](O)CC3)c2n1"
  pIC50: "6.00 to 7.00"
- compound: "CCC[C@H](C)Nc1ncc2c(C3CCN(C(=O)c4cc(C)nc(C)c4)CC3)cn([C@H]3CC[C@H](C(F)F)CC3)c2n1"
  pIC50: "6.00 to 7.00"
- compound: "CCC[C@H](C)Nc1ncc2c(C3CCN(C(=O)c4nccs4)CC3)cn([C@H]3CC[C@H](O)CC3)c2n1"
  pIC50: "6.00 to 7.00"
- compound: "CCC[C@H](C)Nc1ncc2c(C3CCN(C(=O)C4CCNC4)CC3)cn([C@H]3CC[C@H](O)CC3)c2n1 (stereo partly shown)"
  pIC50: "7.00 to 8.00"

Q: Tell us which pIC50 value is on record for CCC[C@H](C)Nc1ncc2c(C3CCN(C(=O)C4CNC4)CC3)cn([C@H]3CC[C@H](O)CC3)c2n1
A: 7.00 to 8.00

Q: Kindly indicate its recorded pIC50. Item: CCC[C@H](C)Nc1ncc2c(C3CCN(C(=O)[C@@H]4CCCNC4)CC3)cn([C@H]3CC[C@H](O)CC3)c2n1
A: 7.00 to 8.00
